# IC50 per entry
assay.target: MAPK14 (human) (UniProt Q16539)
Sequence (Q16539 whole entry, looked up): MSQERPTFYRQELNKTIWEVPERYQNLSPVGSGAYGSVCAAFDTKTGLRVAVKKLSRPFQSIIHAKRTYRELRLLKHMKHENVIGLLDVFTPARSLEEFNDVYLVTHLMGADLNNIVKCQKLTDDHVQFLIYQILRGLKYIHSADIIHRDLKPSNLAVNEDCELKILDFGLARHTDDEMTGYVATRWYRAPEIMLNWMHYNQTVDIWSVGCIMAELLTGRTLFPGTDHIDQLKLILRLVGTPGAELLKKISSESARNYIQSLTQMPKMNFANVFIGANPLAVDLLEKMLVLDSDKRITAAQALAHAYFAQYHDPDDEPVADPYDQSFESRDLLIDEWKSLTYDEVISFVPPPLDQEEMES
protocol.description: Assessment of MAPK14 Kinase Activity

| test.smiles | IC50 |
| --- | --- |
| Cc1ccc(C(=O)NC2CC2)cc1Nc1nc(-c2cccc(CN)c2)c(C(=O)NCc2ccccc2)s1 | < 50 nM |
| CONC(=O)c1ccc(C)c(Nc2noc(-c3ccccc3)n2)c1 | < 50 nM |
| Cc1cccc(Nc2c(C(=O)N3CC[C@@H](O)C3)sc3c2ccc(=O)n3-c2c(F)cccc2F)n1 | 5 to 500 nM |
| CC(C)Nc1ncc2cc(Oc3ccc(F)cc3F)ncc2n1 | < 500 nM |
| Cc1ccc(C(=O)NC2CC2)cc1Nc1nc(-c2ccccc2)cs1 | > 100 nM |
| Cc1ccc(C(=O)NC2CC2)cc1Nc1nc(-c2cccc(C#N)c2)c(C(=O)NCc2ccccc2)s1 | 50 to 100 nM |
| Cc1ccc(C(=O)NC2CC2)cc1Nc1nc(-c2ccc3[nH]ccc3c2)c(C(=O)NCc2ccccc2)s1 | > 100 nM |
| Cc1c(NC(=O)c2cc(F)cc(N3CCOCC3)c2)sc(CN2CCOCC2)c1Cl | < 5000 nM |

Reference for the values: the Kinase Knowledgebase extract (Sharma et al. 2016)
